Biological target: T1, Kap104p (yeast (S. cerevisiae), UniProt P38217 1-918)
T1 chain: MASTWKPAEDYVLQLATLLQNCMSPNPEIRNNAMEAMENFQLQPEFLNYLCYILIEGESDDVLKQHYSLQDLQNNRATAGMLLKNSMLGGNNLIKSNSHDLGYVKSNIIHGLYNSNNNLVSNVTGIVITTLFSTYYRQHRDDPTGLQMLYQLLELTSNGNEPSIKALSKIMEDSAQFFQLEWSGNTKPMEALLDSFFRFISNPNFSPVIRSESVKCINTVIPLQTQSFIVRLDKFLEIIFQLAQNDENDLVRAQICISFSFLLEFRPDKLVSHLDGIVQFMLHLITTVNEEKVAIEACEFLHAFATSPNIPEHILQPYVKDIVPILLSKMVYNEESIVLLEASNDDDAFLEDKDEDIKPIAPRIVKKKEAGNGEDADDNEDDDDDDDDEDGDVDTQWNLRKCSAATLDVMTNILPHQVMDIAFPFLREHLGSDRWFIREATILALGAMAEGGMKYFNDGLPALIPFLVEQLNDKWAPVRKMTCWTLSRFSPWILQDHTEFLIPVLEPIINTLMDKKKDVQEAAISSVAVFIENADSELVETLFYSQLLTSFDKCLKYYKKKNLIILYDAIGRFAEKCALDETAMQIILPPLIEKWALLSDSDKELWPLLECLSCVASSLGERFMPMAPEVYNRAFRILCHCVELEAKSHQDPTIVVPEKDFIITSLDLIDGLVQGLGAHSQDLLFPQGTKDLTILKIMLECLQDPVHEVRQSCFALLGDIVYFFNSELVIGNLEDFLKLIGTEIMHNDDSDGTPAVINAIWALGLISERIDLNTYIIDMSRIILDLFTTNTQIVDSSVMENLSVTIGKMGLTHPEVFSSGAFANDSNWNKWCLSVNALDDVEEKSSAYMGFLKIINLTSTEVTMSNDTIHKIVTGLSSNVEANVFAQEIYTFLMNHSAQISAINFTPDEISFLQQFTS
Assay: ITC
measured_property: Kd (nM)
Expressed in nM, but write only the number.

{"binder": "RDRNDRDRDYNHRSGGNHAANGAGGAGGYNRRNNGYHPYNR (domain or fragment, S. cerevisiae, UniProt Q99383 494-534, looked up, Hrp1p NLS, residues 494-534; also called quadruple mutant (arginines to alanines); source: E. coli BL21(DE3), purified (amylose resin, cation exchange)) [MBP–Hrp1p NLS R512,R513,R516,R519/AAAA]", "measured_property": "Kd", "result": 194}
{"binder": "RDRNDRDRDYNHRSGGNHRRNGRGGRGGYNARNNGYHPYNR [MBP–Hrp1p NLS R524A]", "measured_property": "Kd", "result": 37}
{"binder": "RDRNDRDRDYNHRSGGNHARNGRGGRGGYNRRNNGAHPYNR [MBP–Hrp1p NLS R512A, Y529A]", "measured_property": "Kd", "result": 60}
{"binder": "RDRNDRDRDYNHRSGGNHRRNGRGGRGGYNRANNGYHPYNR [MBP–Hrp1p NLS R525A]", "measured_property": "Kd", "result": 13}
{"binder": "RDRNDRDRDYNHRSGGNHRRNGRGGRGGYNRRNNGAHPYNR (domain or fragment, S. cerevisiae, UniProt Q99383 494-534, looked up, Hrp1p NLS, residues 494-534; source: E. coli BL21(DE3), purified (amylose resin, cation exchange)) [MBP–Hrp1p NLS Y529A]", "measured_property": "Kd", "result": 143}
{"binder": "RDRNDRDRDYNHRSGGNHARNGRGGRGGYNAANNGYHPYNR [MBP–Hrp1p NLS R512A, 524RR525/AA]", "measured_property": "Kd", "result": 44}
{"binder": "RDRNDRDRDYNHRSGGNHRRNGRGGRGGYNRRNNGLHPYNR (domain or fragment, S. cerevisiae, UniProt Q99383 494-534, looked up, Hrp1p NLS, residues 494-534; source: E. coli BL21(DE3), purified (amylose resin, cation exchange)) [MBP–Hrp1p NLS Y529L]", "measured_property": "Kd", "result": 37}

Attention now turns to another entry.
According to the records, this binder RDRNDRDRDYNHRSGGNHKKNGKGGKGGYNRRNNGYHPYNR (domain or fragment, S. cerevisiae, UniProt Q99383 494-534, looked up, Hrp1p NLS, residues 494-534; also called quadruple mutant (arginines to lysines); source: E. coli BL21(DE3), purified (amylose resin, cation exchange)) [MBP–Hrp1p NLS R512, R513, R516, R519/KKKK] displays Kd of 36
